Provenance of the data: PubChem BioAssay (NCI)

test system: CAKI-1 renal; assay: NCI tumour cell line growth inhibition, 48 h
measured endpoint: TGI

molecule="CCC(C)C(C(=O)N/N=C1/SCC(=O)N1c1ccccc1)C(=O)N/N=C1/SCC(=O)N1c1ccccc1 (centres undefined)" assay_target="CAKI-1 renal" measured_endpoint=TGI reported_measurement="> 100 µM"
molecule=COc1ccccc1N1C(=O)/C(=C/c2ccc(N(CCC#N)CCC#N)cc2C)N=C1c1cc([N+](=O)[O-])ccc1Cl assay_target="CAKI-1 renal" measured_endpoint=TGI reported_measurement="> 100 µM"
molecule=O=[N+]([O-])c1cc(Cl)c(Cl)c([N+](=O)[O-])c1Cl assay_target="CAKI-1 renal" measured_endpoint=TGI reported_measurement="0.36 µM"
molecule=Nc1nc(N)c2cc(Sc3ccc4nc(N)nc(N)c4c3)ccc2n1 assay_target="CAKI-1 renal" measured_endpoint=TGI reported_measurement="> 100 µM"
molecule="Ic1ncnc2c1ncn2C1CCCO1 (centres undefined)" assay_target="CAKI-1 renal" measured_endpoint=TGI reported_measurement="> 100 µM"
molecule=CCN(CC)c1cc2c3c(c1)CCCN3CCC2 assay_target="CAKI-1 renal" measured_endpoint=TGI reported_measurement="> 10 µM"
molecule="COC(=O)C(Cc1cn(C(C)=O)c2ccccc12)P(=O)(OC)OC (centres undefined)" assay_target="CAKI-1 renal" measured_endpoint=TGI reported_measurement="> 100 µM"
molecule="COc1cc(S(=O)(=O)Nc2nc(-c3ccc(N4C(=O)CSC4c4cccs4)cc3)cs2)ccc1Cl (centres undefined)" assay_target="CAKI-1 renal" measured_endpoint=TGI reported_measurement="> 100 µM"
molecule=O=c1c2cc(Cl)ccc2oc2ccc(OCCCCCN3CCCCC3)cc12 assay_target="CAKI-1 renal" measured_endpoint=TGI reported_measurement="9.84 µM"
molecule="CCC(Sc1cc(Cl)c(C)cc1S(=O)(=O)Nc1nc(N)nc(N(C)C)n1)C(=O)O (centres undefined)" assay_target="CAKI-1 renal" measured_endpoint=TGI reported_measurement="> 10 µM"
molecule="CC1C[C@@]2(c3ccccc3)C(=O)CCC[C@H]2N1 (some centres undefined)" assay_target="CAKI-1 renal" measured_endpoint=TGI reported_measurement="> 100 µM"
molecule=COc1ccc(OC)c2sc(N3C(=O)/C(=C/c4ccc(Cl)cc4)N=C3c3ccccc3)nc12 assay_target="CAKI-1 renal" measured_endpoint=TGI reported_measurement="> 100 µM"
molecule=CC(C)CS(=O)(=O)/C(=C(\c1ccc(Br)cc1)S(=O)(=O)CC(C)C)c1ccc(Br)cc1 assay_target="CAKI-1 renal" measured_endpoint=TGI reported_measurement="> 100 µM"
molecule=Cc1cc(C)c([O-])c(CN(C)CCN(C)Cc2cc(C)cc(C)c2[O-])c1.O=C([O-])c1cccc(C(=O)[O-])n1.[Ti+4] assay_target="CAKI-1 renal" measured_endpoint=TGI reported_measurement="> 100 µM"

====

tested on: SF-268 CNS; test: NCI tumour cell line growth inhibition, 48 h
Listed here: items and their measured GI50.
measured endpoint: GI50

compound=O=c1c2c(nc3n1CCS3)[nH]c1ccccc12 measured_endpoint=GI50 reported_measurement="> 100 µM"
compound=NOCC(=O)O measured_endpoint=GI50 reported_measurement="> 100 µM"
compound=O=c1c2cc(Cl)ccc2oc2ccc(OCCCCCN3CCCCC3)cc12 measured_endpoint=GI50 reported_measurement="5.28 µM"
compound=CN[C@@H](C)C(=O)N[C@H](C(=O)N1CCC[C@H]1C(=O)N[C@H]1c2ccccc2C[C@H]1OCC#CC#CCO[C@@H]1Cc2ccccc2[C@@H]1NC(=O)[C@@H]1CCCN1C(=O)[C@@H](NC(=O)[C@H](C)NC)C1CCCCC1)C1CCCCC1 measured_endpoint=GI50 reported_measurement="5.58 µM"
compound="O=c1ccn(C2OC(CO)C(O)C2F)c(=O)[nH]1 (centres undefined)" measured_endpoint=GI50 reported_measurement="> 1000 µM"
compound=O=C(/C=C/c1ccc(F)cc1)c1ccc(Cl)cc1Cl measured_endpoint=GI50 reported_measurement="74.5 µM"
compound=Cc1nc2sc(C(=O)Nc3cccc(Cl)c3C)c(N)c2cc1C(=O)/C=C/c1ccccc1 measured_endpoint=GI50 reported_measurement="0.938 µM"
compound=CCN1CCN(C(=O)[C@]23CC[C@@H](C)[C@H](C)[C@@H]2C2=CC[C@@H]4[C@@]5(C)C/C(=C/c6ccncc6)C(=O)C(C)(C)[C@@H]5CC[C@@]4(C)[C@]2(C)CC3)CC1 measured_endpoint=GI50 reported_measurement="1.64 µM"
compound=O=S(=O)(NC1=NCCN1C(=S)SN1CCn2c1nsc2=S)c1ccc(Br)cc1 measured_endpoint=GI50 reported_measurement="39.4 µM"

====

Listed here: items and their measured TGI.
tested on: HOP-62 NSCLC; assay: NCI tumour cell line growth inhibition, 48 h
measured endpoint: TGI

compound="c1ccc2c(c1)CCC/C2=N\\OCC1CO1 (stereo unspecified)" measured_endpoint=TGI reported_measurement="> 100 µM"
compound=O=C1Nc2ccc(C(=O)c3ccco3)cc2/C1=C/c1cc(Cl)c(O)c(Cl)c1 measured_endpoint=TGI reported_measurement="> 22.1 µM"
compound="CC(C)(C)O/C=C1/C(=O)OC2C[C@@H](O[Si](C)(C)C(C)(C)C)CC12 (stereo partly specified)" measured_endpoint=TGI reported_measurement="> 100 µM"
compound=O=c1c2c(nc3n1CCS3)[nH]c1ccccc12 measured_endpoint=TGI reported_measurement="> 100 µM"
compound=O=c1[nH]c(C23CC4CC(CC(C4)C2)C3)cc2c1c(=O)oc1ccccc12 measured_endpoint=TGI reported_measurement="9.56 µM"
compound=N#CC(C#N)N=Cc1ccncc1 measured_endpoint=TGI reported_measurement="> 100 µM"
compound="COc1ccc(N2C(=O)CC(Cl)C2=O)cc1 (stereo unspecified)" measured_endpoint=TGI reported_measurement="> 100 µM"
compound="COC(=O)C1=C(O)C(C(=O)OC)[C@]2(O)[C@H](C(=O)OC)[C@H]1C[C@@H](c1ccc(F)cc1)[C@H]2C(=O)OC (stereo partly specified)" measured_endpoint=TGI reported_measurement="68.5 µM"
compound=Cn1c([N+](=O)[O-])cnc1/C=C1\Oc2ccccc2C1=O measured_endpoint=TGI reported_measurement="4.42 µM"
compound=Cc1c(NC(=O)C(C)(C)Br)c(=O)oc2c(C)c3occc(=O)c3cc12 measured_endpoint=TGI reported_measurement="> 100 µM"
compound=COc1ccc(/C=N\NC(=O)CN2CCN(c3cc4c(cc3F)c(=O)c(C(=O)N/N=C/c3ccc(OC)c(OC)c3)cn4C3CC3)CC2)cc1OC measured_endpoint=TGI reported_measurement="9.54 µM"

====

test system: NCI-H522 lung; experiment: NCI tumour cell line growth inhibition, 48 h
measured endpoint: log10 of TGI (log10 of the value in µM)

molecule=CC1=C(C(=O)Nc2ccccc2C)C(c2ccc(Cl)c(Cl)c2)C(C(=O)Nc2ccccc2C)=C(C)N1 measured_endpoint="log10 of TGI" reported_measurement=1.46
molecule=O=c1[nH]c(C23CC4CC(CC(C4)C2)C3)cc2c1c(=O)oc1ccccc12 measured_endpoint="log10 of TGI" reported_measurement=1.05
molecule="O=C(Nc1ccc(Cl)cc1)C(=O)C(C(=O)c1ccccc1-c1ccccc1)C1OC(=O)c2ccccc21 (configuration not stated)" measured_endpoint="log10 of TGI" reported_measurement=1.45
molecule=COc1ccc2nc3c([N+](=O)[O-])ccc4c3c(c2c1)N=CN4CCCN(C)C measured_endpoint="log10 of TGI" reported_measurement=0.98
molecule="CCOC(=O)C(N)C[S][Sn]([CH3])([CH3])[Cl] (configuration not stated)" measured_endpoint="log10 of TGI" reported_measurement=1.58
molecule="O=C(c1ccccc1)c1ccc2nc3n(c2c1)C(c1c(F)cccc1F)SC3 (configuration not stated)" measured_endpoint="log10 of TGI" reported_measurement=0.79
molecule="CSc1ccc(C2=NN(C(=O)c3ccc(F)cc3)C(c3ccc(F)cc3)C2)cc1 (configuration not stated)" measured_endpoint="log10 of TGI" reported_measurement=1.44
molecule=CNc1c2cccc(C)c2nc2c(C(=O)NCCN(C)C)cccc12 measured_endpoint="log10 of TGI" reported_measurement=-0.96

====

system: T-47D breast; experiment: NCI tumour cell line growth inhibition, 48 h
Listed here: items and their measured TGI.
measured endpoint: TGI

molecule="COC(=O)Nc1nc2ccc(S(=O)(=O)NC(CC(C)C)C(=O)OC)cc2[nH]1 (stereo not drawn)" measured_endpoint=TGI reported_measurement="> 100 µM"
molecule=CC(C)c1ccc(C(=O)Nc2nc3ccc(O)cc3s2)cc1 measured_endpoint=TGI reported_measurement="> 100 µM"
molecule=CC(=O)Oc1cc2c(n(C)c1=O)-c1ccccc1C2 measured_endpoint=TGI reported_measurement="> 100 µM"
molecule=NOCC(=O)O measured_endpoint=TGI reported_measurement="> 100 µM"
molecule=O=[n+]1c2ccccc2n([O-])c2ccccc21 measured_endpoint=TGI reported_measurement="> 100 µM"
molecule="ClC1(Cl)C(c2ccccc2)C1c1ccccc1 (stereo not drawn)" measured_endpoint=TGI reported_measurement="> 100 µM"
molecule=CC(=O)c1c(C)[nH]c(-c2nc3ccc(N4CCN(C)CC4)cc3[nH]2)c1-c1ccc(OCC2CCOCC2)cc1 measured_endpoint=TGI reported_measurement="20.6 µM"
molecule="CC(C)(C)[Si](C)(C)O[C@@H](C(=O)OC1C=CCCC1)[C@@H](NC(=O)c1ccccc1)c1ccccc1 (stereo partly drawn)" measured_endpoint=TGI reported_measurement="98 µM"
molecule=COC(=O)c1c(O)ccc2c1c1c(n2Cc2ccccc2)C(=O)c2ccccc2C1=O measured_endpoint=TGI reported_measurement="42.1 µM"
molecule=COc1nc(C)nc2sc3c(c12)CCCC3 measured_endpoint=TGI reported_measurement="> 100 µM"
molecule=O=c1c(C=Nc2ccccc2Cl)c(O)n(-c2ccccc2)c(=O)n1-c1ccccc1 measured_endpoint=TGI reported_measurement="> 100 µM"
molecule=OC(CCN1CCCCC1)(c1ccccc1)c1ccccc1 measured_endpoint=TGI reported_measurement="> 100 µM"
molecule="CCOC(=O)C1=CN/C(=C(/C)C(=O)OC)SC1C(=O)OCC (stereo not drawn)" measured_endpoint=TGI reported_measurement="> 100 µM"
